- TEST_TARGET: human 5-HT2A receptor (Homo sapiens (Human), UniProt P28223)
- Sequence (P28223 whole entry): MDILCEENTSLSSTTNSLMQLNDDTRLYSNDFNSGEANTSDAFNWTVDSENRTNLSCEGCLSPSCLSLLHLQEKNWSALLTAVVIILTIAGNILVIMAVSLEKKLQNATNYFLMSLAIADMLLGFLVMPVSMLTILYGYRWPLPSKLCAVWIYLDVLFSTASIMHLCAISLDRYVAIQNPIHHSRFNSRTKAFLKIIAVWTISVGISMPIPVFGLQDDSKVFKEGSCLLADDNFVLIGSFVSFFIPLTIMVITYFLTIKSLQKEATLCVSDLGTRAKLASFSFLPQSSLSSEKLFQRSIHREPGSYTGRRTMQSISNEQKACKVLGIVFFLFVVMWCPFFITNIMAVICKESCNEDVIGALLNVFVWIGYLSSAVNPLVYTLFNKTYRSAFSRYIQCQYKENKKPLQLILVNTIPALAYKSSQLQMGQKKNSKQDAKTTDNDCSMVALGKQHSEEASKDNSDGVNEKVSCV
Listed here are molecules together with their documented pKi.
When answering, recall that pKi equals minus log10 of the concentration in mol/L, and write that number alone.

Solved entries (count: 2):
                                   molecule  quantity_measured  experimental_result
0  Cc1cc(C(=O)N[C@H]2CC[C@H](CCN3CCC(c4coc5ccccc45)CC3)CC2)on1                pKi                 8.04
1  O=CN[C@H]1CC[C@H](CCN2CCC(c3coc4ccccc34)CC2)CC1                pKi                 7.87

// query Given the entry CC#CC(=O)N[C@H]1CC[C@H](CCN2CCC(c3coc4ccccc34)CC2)CC1 , what pKi was observed with human 5-HT2A receptor (Homo sapiens (Human), UniProt P28223)?
// result 8.10

// query Recall the recorded pKi for COCC(=O)N[C@H]1CC[C@H](CCN2CCC(c3coc4ccccc34)CC2)CC1 with human 5-HT2A receptor (Homo sapiens (Human), UniProt P28223) and state it.
// result 8.47

// query Form field: pKi recorded for CC(C)(C)C(=O)N[C@H]1CC[C@H](CCN2CCC(c3coc4ccccc34)CC2)CC1 with human 5-HT2A receptor (Homo sapiens (Human), UniProt P28223) (enter value)
// result 8.22

// query Record lookup: for human 5-HT2A receptor (Homo sapiens (Human), UniProt P28223), what pKi belongs to CS(=O)(=O)c1ccc(C(=O)N[C@H]2CC[C@H](CCN3CCC(c4coc5ccccc45)CC3)CC2)s1 ?
// result 8.11

// query Checklist item: pKi tested on human 5-HT2A receptor (Homo sapiens (Human), UniProt P28223), entry O=C(N[C@H]1CC[C@H](CCN2CCC(c3coc4ccccc34)CC2)CC1)C(F)(F)F , value?
// result 8.06

// query Request: pKi, test system human 5-HT2A receptor (Homo sapiens (Human), UniProt P28223), entry O=C(N[C@H]1CC[C@H](CCN2CCC(c3coc4ccccc34)CC2)CC1)C1CCC(C(F)(F)F)CC1 (some centres unmarked)
// result 7.95

Source of measurements: patent US8921397B2
